Reported pIC50 values for the following molecules.
# EXPERIMENTAL SYSTEM: UniProtKB P61073
# Sequence (P61073 whole entry): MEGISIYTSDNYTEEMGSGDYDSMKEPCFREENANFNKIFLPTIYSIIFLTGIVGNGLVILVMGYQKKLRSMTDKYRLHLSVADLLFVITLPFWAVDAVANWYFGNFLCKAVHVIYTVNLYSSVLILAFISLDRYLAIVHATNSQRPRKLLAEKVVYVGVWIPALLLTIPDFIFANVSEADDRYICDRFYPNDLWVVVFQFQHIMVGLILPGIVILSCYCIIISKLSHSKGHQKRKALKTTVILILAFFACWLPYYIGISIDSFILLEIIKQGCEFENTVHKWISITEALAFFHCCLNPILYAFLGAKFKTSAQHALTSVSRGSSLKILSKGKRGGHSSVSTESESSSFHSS
# ASSAY INFO: Binding affinity to CXCR4 (unknown origin) expressed in CHO cells incubated for 40 mins by immunofluorescence assay
# Format: cell-based
pIC50: −log10 of the molar value.
MEASURED PARAMETER: pIC50

[[record]]
chemical_structure = "CNC(=O)COCC(=O)NCCCCCCNC(=O)COCC(=O)NC[C@H]1CC[C@H](/N=C(/NC2CCCCC2)SCC2=CSC3=NC(C)(C)CN23)CC1"
measured_parameter = "pIC50"
data_value = 4.13

[[record]]
chemical_structure = "CC1(C)CN2C(CS/C(=N\\[C@H]3CC[C@H](CNC(=O)COCC(=O)NCCCCCCNC(=O)COCC(=O)N[C@@H]4CC[C@@]5(O)[C@H]6Cc7ccc(O)c8c7[C@@]5(CCN6CC5CC5)[C@H]4O8)CC3)NC3CCCCC3)=CSC2=N1"
measured_parameter = "pIC50"
data_value = 4.76

